Each record here notes measured inhibition at 50 µM.
Molecular target: human platelet phospholipase A2 (Homo sapiens)
Construct: a preparation of human platelet phospholipase A2; from tissue; host or cells: human platelets
Sequence (P14555 21-144): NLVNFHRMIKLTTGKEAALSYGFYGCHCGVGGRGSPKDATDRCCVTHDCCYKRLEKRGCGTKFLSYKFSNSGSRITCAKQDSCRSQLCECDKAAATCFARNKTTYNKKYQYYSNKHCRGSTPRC
Test: Inhibition of human platelet phospholipase A2 (14C-oleate E. coli substrate)
Assay type: biochemical
Details: read-out: Inhibition of PLA2, % Inhibition @ 50 μM
Procedure: The activity of the compounds of the invention against phospholipase A2 is determined using a preparation of human platelet phospholipase A2 with a specific activity of 180 nmol/min/mg as the enzyme source. […] The plate is developed with an 80:20:1 mixture of petroleum ether-diethyl ether-acetic acid. […] The plate is scored above the origin, cut along the score with scissors, and the reactant (origin) and product portions of each channel are put into separate scintillation vials. […]
Quantity Measured: inhibition at 50 µM (%)

INSERT INTO results (compound, quantity_measured, observed_result) VALUES
  ('O=C1C=C(c2ccc(C#Cc3cccc4ccccc34)cc2)C(O)O1 (stereo not drawn) [Example 57]', 'inhibition at 50 µM', 69),
  ('CCCCCCCCSc1nc(C2=CC(=O)OC2O)cs1 (stereo not drawn) [Example 70]', 'inhibition at 50 µM', 70),
  ('O=C1C=C(c2ccc(C(=O)c3ccccc3F)cc2)C(O)O1 (stereo not drawn) [Example 31]', 'inhibition at 50 µM', 6),
  ('CCCCCCCC(=O)c1ccc(C2=CC(=O)OC2O)cc1 (stereo not drawn) [Example 32]', 'inhibition at 50 µM', 55),
  ('O=C1C=C(c2ccc(OCCCc3ccccc3)cc2)C(O)O1 (stereo not drawn) [Example 10]', 'inhibition at 50 µM', 17),
  ('CCCCCCCC(=O)Nc1ccc(C2=CC(=O)OC2O)cc1 (stereo not drawn) [Example 21]', 'inhibition at 50 µM', 0),
  ('O=C1C=C(c2ccc(C(=O)/C=C/c3ccc4ccccc4c3)cc2)C(O)O1 (stereo not drawn) [Example 30]', 'inhibition at 50 µM', 92),
  ('CCCCCCCCOc1ccc(C2=CC(=O)OC2O)cc1 (stereo not drawn) [Example 1]', 'inhibition at 50 µM', 91),
  ('O=C1C=C(c2ccc(/C=C/c3ccccc3)cc2)C(O)O1 (single isomer, unassigned) [Example 34]', 'inhibition at 50 µM', 91),
  ('O=C1C=C(c2ccc(Oc3ccc4ccccc4c3)cc2)C(O)O1 (stereo not drawn) [Example 50]', 'inhibition at 50 µM', 52),
  ('CC1=C(CCCC/C=C(\C)COc2ccc(C3=CC(=O)OC3O)cc2)C(C)(C)CCC1 (stereo not drawn) [Example 14]', 'inhibition at 50 µM', 87),
  ('CCCCSc1ccc(C2=CC(=O)OC2O)cc1 (stereo not drawn) [Example 24]', 'inhibition at 50 µM', 0),
  ('CCCCCC/C=C/c1ccc(C2=CC(=O)OC2O)cc1 (stereo not drawn) [Example 35]', 'inhibition at 50 µM', 100),
  ('CCCCCCCCOc1ccc(C2=CC(=O)OC2O)cn1 (stereo not drawn) [Example 69]', 'inhibition at 50 µM', 52),
  ('O=C1C=C(c2ccc(C#Cc3ccc4ccccc4c3)cc2)C(O)O1 (stereo not drawn) [Example 56]', 'inhibition at 50 µM', 59),
  ('O=C1C=C(c2ccc(OCCOc3ccc4ccccc4c3)cc2)C(O)O1 (stereo not drawn) [Example 12]', 'inhibition at 50 µM', 47),
  ('O=C1C=C(c2ccc(COc3ccc4ccccc4c3)cc2)C(O)O1 (stereo not drawn) [Example 52]', 'inhibition at 50 µM', 51),
  ('COc1ccc(CCNC(=O)c2ccc(C3=CC(=O)OC3O)cc2)cc1OC (stereo not drawn) [Example 48]', 'inhibition at 50 µM', 0);
